# target-desc: human TRPV4 (hTRPV4/CHO cells) (Homo sapiens, UniProt Q9HBA0)
# Construct: expressed in transfected cells; host or cells: CHO-K1
# Sequence (Q9HBA0 whole entry): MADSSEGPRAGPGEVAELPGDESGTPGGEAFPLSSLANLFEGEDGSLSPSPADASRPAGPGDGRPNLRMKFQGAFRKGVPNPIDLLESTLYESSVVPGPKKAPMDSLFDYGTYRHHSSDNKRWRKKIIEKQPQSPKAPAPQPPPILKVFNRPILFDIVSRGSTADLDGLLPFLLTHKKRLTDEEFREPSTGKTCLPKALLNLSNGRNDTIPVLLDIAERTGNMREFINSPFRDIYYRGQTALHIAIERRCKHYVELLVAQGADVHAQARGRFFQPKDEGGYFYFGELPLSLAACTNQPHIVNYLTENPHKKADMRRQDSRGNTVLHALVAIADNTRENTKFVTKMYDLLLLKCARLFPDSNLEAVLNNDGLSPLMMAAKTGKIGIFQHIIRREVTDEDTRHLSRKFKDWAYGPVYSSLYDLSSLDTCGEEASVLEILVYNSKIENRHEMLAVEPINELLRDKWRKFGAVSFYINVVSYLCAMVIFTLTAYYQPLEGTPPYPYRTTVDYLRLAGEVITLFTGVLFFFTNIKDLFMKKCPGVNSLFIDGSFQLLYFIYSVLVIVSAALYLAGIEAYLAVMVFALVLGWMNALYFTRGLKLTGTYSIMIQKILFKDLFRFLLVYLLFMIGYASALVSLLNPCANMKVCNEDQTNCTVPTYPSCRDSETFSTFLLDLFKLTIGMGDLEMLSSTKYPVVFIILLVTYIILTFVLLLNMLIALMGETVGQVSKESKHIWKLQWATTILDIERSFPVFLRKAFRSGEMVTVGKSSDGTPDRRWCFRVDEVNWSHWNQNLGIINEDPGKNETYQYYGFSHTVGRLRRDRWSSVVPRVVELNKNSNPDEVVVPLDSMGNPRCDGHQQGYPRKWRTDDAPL
# test-summary: Test Example 1: TRPV4 inhibitory activity (IC50 value), 4α-PDD stimulation, Fluo4 calcium fluorescence (FLIPR TETRA)
# Format: cell-based
# measurement-context: Test Example 1, 4α-PDD stimulation, read-out: Test 1 IC50
pIC50: −log10 of the molar value.
metric: pIC50

Record excerpt, results attached:
INSERT INTO assay_data (compound, target_desc, metric, recorded_result) VALUES
  ('Cc1nc(C(F)F)sc1-c1csc(NC(=O)C2CC2(F)F)n1 (stereo not shown) [Compound I-112]', 'human TRPV4 (hTRPV4/CHO cells) (Homo sapiens, UniProt Q9HBA0)', 'pIC50', '5.10 to 6.00'),
  ('Cc1nc(C)c(-c2csc(NC(=O)[C@@H]3C[C@@H](Oc4ccccc4)CN3C(=O)OC(C)(C)C)n2)s1 [Compound I-242]', 'human TRPV4 (hTRPV4/CHO cells) (Homo sapiens, UniProt Q9HBA0)', 'pIC50', '> 7.00'),
  ('O=C(Cc1ccc(S(=O)(=O)C(F)(F)F)cc1)Nc1nc(-c2sc(CO)nc2/C=C/CO)cs1 [Compound I-320]', 'human TRPV4 (hTRPV4/CHO cells) (Homo sapiens, UniProt Q9HBA0)', 'pIC50', '> 7.00');

The measured pIC50 associated with CO[C@H]1C[C@@H](C(=O)Nc2nc(-c3sc(C)nc3C)cs2)C1 [Compound I-269] reads 5.10 to 6.00
